The origin of these recorded values is patent US9302999B2.

Could you please report measured Plant response rating, Lambsquarters for the items listed next?
test system: lambsquarters (Chenopodium album); experiment: Test C pre-/postemergence: lambsquarters; format: in vivo; conditions: Preemergence, 62 g ai/ha; scale of 0 to 100, 0 is no effect, 100 is complete control

Sample answers from the record:
COc1nn(-c2cccc(F)c2)nc1Cc1ccnc(C(F)(F)F)c1 = 70
Cc1nn(-c2ccc(F)cc2F)nc1Oc1ccnc(C(F)(F)F)c1 = 40
FC(F)Oc1nn(-c2ccc(C(F)(F)F)cc2)nc1Cc1ccnc(C(F)(F)F)c1 = 98
CCc1nn(-c2ccc(F)cc2)nc1Cc1ccnc(C(F)(F)F)c1 = 100
Cc1nn(-c2ccc(C(F)(F)F)c(F)c2)nc1Oc1ccnc(C(F)(F)F)c1 = 25

Required: Plant response rating, Lambsquarters, one value per compound below.
1. CCCc1nn(-c2ccc(C(F)(F)F)cc2)nc1Oc1ccnc(C(F)(F)F)c1
2. FCc1nn(-c2ccc(F)cc2)nc1Oc1ccnc(C(F)(F)F)c1
3. CCCc1nn(-c2ccc(F)cc2F)nc1Oc1ccnc(C(F)(F)F)c1

(A)
1: 85; 2: 100; 3: 98

(Q) For lambsquarters (Chenopodium album), provide Plant response rating, Lambsquarters of CCCc1nn(-c2ccc(F)cc2)nc1Oc1ccnc(C(F)(F)F)c1 please.
(A) 98
